Where do these numbers come from? They come from patent US10124004B2.

assaySystem: CDK2/cyclin A2 (Homo sapiens)
Construct: purchased Carna Biosciences, Inc. QS S Assist CDK2/Cyclin A2_FP Kit
testProtocol: Human CDK2/cyclin A2 inhibitory activity (QS S Assist CDK2/Cyclin A2_FP Kit, IMAP fluorescence polarization)
Assay type: biochemical
assayConditions: Human CDK2/cyclin A2 inhibitory activity; read-out: CDK2 Activity symbol
Catalogue of IC50 values
endpoint: IC50

- compound: "CO[C@H](C)c1cc2cnc(Nc3ccc(CN4CCNCC4)cn3)nc2c(N[C@@H]2CCCOC2)n1"
  assaySystem: "CDK2/cyclin A2 (Homo sapiens)"
  reportedResult: "≥ 100 nM"
- compound: "C[C@@H](O)c1cc2cnc(Nc3ccc(OCCN(C)C)cn3)nc2c(NC2CCC(C)(C)OC2)n1 (stereo partly shown)"
  assaySystem: "CDK2/cyclin A2 (Homo sapiens)"
  reportedResult: "≥ 100 nM"
- compound: "CC(C)Nc1nc(C(F)F)cc2cnc(Nc3ccc(CCCN4CCCCS4(=O)=O)cn3)nc12"
  assaySystem: "CDK2/cyclin A2 (Homo sapiens)"
  reportedResult: "≥ 100 nM"
- compound: "CC(C)Nc1nc(C(F)F)cc2cnc(Nc3ccc(CC(=O)O)cn3)nc12"
  assaySystem: "CDK2/cyclin A2 (Homo sapiens)"
  reportedResult: "≥ 100 nM"
- compound: "C[C@@H](O)c1cc2cnc(Nc3ccc(N4CCNCC4=O)cn3)nc2c(N[C@H]2CC[C@@H](C)CC2)n1"
  assaySystem: "CDK2/cyclin A2 (Homo sapiens)"
  reportedResult: "≥ 100 nM"
- compound: "C[C@@H](O)c1cc2cnc(Nc3ccc(N4CCNCC4=O)cn3)nc2c(N[C@H]2CC[C@H](C)CC2)n1"
  assaySystem: "CDK2/cyclin A2 (Homo sapiens)"
  reportedResult: "10 to 100 nM"
- compound: "CC(C)Nc1nc(C(F)F)cc2cnc(Nc3ccc(CN(C4CCOC4)S(C)(=O)=O)cn3)nc12 (stereo not shown)"
  assaySystem: "CDK2/cyclin A2 (Homo sapiens)"
  reportedResult: "≥ 100 nM"
- compound: "CO[C@H](C)c1cc2cnc(Nc3ccc(C4CCN(C(C)=O)CC4)cn3)nc2c(NC(C)C)n1"
  assaySystem: "CDK2/cyclin A2 (Homo sapiens)"
  reportedResult: "≥ 100 nM"
- compound: "CNCCOc1ccc(Nc2ncc3cc([C@@H](C)O)nc(NC4CCC(OC)CC4)c3n2)nc1 (stereo partly shown)"
  assaySystem: "CDK2/cyclin A2 (Homo sapiens)"
  reportedResult: "≥ 100 nM"
- compound: "CC(C)Nc1nc(C(F)F)cc2cnc(Nc3ccc(CCCNS(C)(=O)=O)cn3)nc12"
  assaySystem: "CDK2/cyclin A2 (Homo sapiens)"
  reportedResult: "10 to 100 nM"
- compound: "CNCC(C)(C)c1ccc(Nc2ncc3cc([C@@H](C)O)nc(NC(C)(C)COC)c3n2)nc1"
  assaySystem: "CDK2/cyclin A2 (Homo sapiens)"
  reportedResult: "≥ 100 nM"
- compound: "CO[C@H](C)c1cc2cnc(Nc3ccc(N4CCNCCC4=O)cn3)nc2c(NC(C)C)n1"
  assaySystem: "CDK2/cyclin A2 (Homo sapiens)"
  reportedResult: "10 to 100 nM"
- compound: "CC(C)Nc1nc(C(F)F)cc2cnc(Nc3ccc(N4CCN(C)C(=O)C4)cn3)nc12"
  assaySystem: "CDK2/cyclin A2 (Homo sapiens)"
  reportedResult: "10 to 100 nM"
- compound: "C[C@@H](O)c1cc2cnc(Nc3ccc(N4CCN(C=O)CC4=O)cn3)nc2c(N[C@H]2CCCOC2)n1"
  assaySystem: "CDK2/cyclin A2 (Homo sapiens)"
  reportedResult: "≥ 100 nM"
- compound: "CC(C)Nc1nc(C(F)F)cc2cnc(Nc3ccc(O[C@H]4CC[C@@H](O)CC4)cn3)nc12"
  assaySystem: "CDK2/cyclin A2 (Homo sapiens)"
  reportedResult: "≥ 100 nM"
- compound: "CO[C@H](C)c1cc2cnc(Nc3ccc(CN4CCN(CCF)CC4)cn3)nc2c(NC(C)C)n1"
  assaySystem: "CDK2/cyclin A2 (Homo sapiens)"
  reportedResult: "≥ 100 nM"
